Values compiled from ChEMBL document CHEMBL4257505.

test: Efflux ratio of apparent permeability from basolateral to apical over apical to basolateral side in human Caco2 cells at 100 uM after 120 mins; assay type: ADME, cell-based; settings: Caco-2
quantity.name: efflux ratio at 2 h, 100 µM
# respond with the number and nothing more

Sample records with efflux ratio at 2 h, 100 µM:
                         compound_structure  measured_value
0  COc1cc(-c2ccc(CN3CCc4cc(OC)c(OC)cc4C3)cc2)ccc1O             3.9
1  COc1cc2c(cc1OC)CN(Cc1ccc(-c3ccc(O)c([N+](=O)[O-])c3)cc1)CC2             6.3
2  COc1cc2c(cc1OC)CN(Cc1ccc(-c3ccc(O)cc3OC)cc1)CC2             3.5
3  COc1cc2c(cc1OC)CN(Cc1ccc(-c3ccc(O)cc3)cc1F)CC2             4.1
4  COc1cc2c(cc1OC)CN(Cc1ccc(-c3ccc(O)cc3)cc1[N+](=O)[O-])CC2             5.8
5  COc1cc(-c2ccc(O)cc2)ccc1CN1CCc2cc(OC)c(OC)cc2C1             4.5

Form: compound = COc1cc2c(cc1OC)CN(Cc1ccc(-c3ccc(O)cc3N)cc1)CC2 ; efflux ratio at 2 h, 100 µM = 4.5

Form: compound = COc1cc2c(cc1OC)CN(Cc1ccc(-c3ccc(O)c(F)c3)cc1)CC2 ; efflux ratio at 2 h, 100 µM = 4.9

Form: compound = COc1cc2c(cc1OC)CN(Cc1ccc(-c3ccc(O)cc3)c(OC)c1)CC2 ; efflux ratio at 2 h, 100 µM = 4.4

Form: compound = COc1cc2c(cc1OC)CN(Cc1ccc(-c3ccc(O)cc3)c(F)c1)CC2 ; efflux ratio at 2 h, 100 µM = 3.7
